The measured values listed here are drawn from PubChem BioAssay.

# target.under.test: Alpha-2C adrenergic receptor (Homo sapiens)
# test.protocol: modulators of alpha2C/GIRK thallium flux, primary screen, cell-based, HEK293 alpha2C/GIRK1/2 (AID 624);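 also: slope of fluorescence ratio to pre-addition baseline per second over 15 to 24 s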
# applied.conditions: thallium flux BTC fluorescence, at 10 µM, actives lie on both sides
test.readout: slope
Enter the number alone.

Cc1nnc(SCC(=O)N2CCC(C(N)=O)CC2)s1: 0.00689
COc1cc(-n2c3nc4ccccc4nc3c3c(=O)n(Cc4ccco4)cnc32)cc(OC)c1OC: 0.00442
CCCOc1cccc(C2C(C(=O)c3ccc(C)o3)=C(O)C(=O)N2CCCN(C)C)c1 (stereo not drawn): 0.00522
Cn1c(=O)n(C)c2cc(C(=O)c3ccccc3)ccc21: 0.00503
Cc1cc(C)n(CC(=O)N2c3ccccc3Sc3ccccc32)n1: 0.00518

Pending compound:
// slope lookup, compound = O=C(Nc1nccs1)NC(C(F)(F)F)C(F)(F)F , result: 0.00624
